Experiment: solvent given as SMILES
Conditions: in ClCCl
emission maximum vs 500 nm: less than gives Fulfilled; not less than gives Not fulfilled.

Problem: Item "CCN(CC)c1ccc2c(c1)oc(=O)c1c(=O)oc3cc(Br)ccc3c12" : emission maximum beneath 500 nm, strictly?
Result: Not fulfilled

Problem: Item "c1ccc(-n2c(-c3ccc([Si](c4ccc(-c5nc6ccccc6n5-c5ccccc5)cc4)(c4ccc(-c5nc6ccccc6n5-c5ccccc5)cc4)c4ccc(-c5nc6ccccc6n5-c5ccccc5)cc4)cc3)nc3ccccc32)cc1" : emission maximum beneath 500 nm, strictly?
Result: Fulfilled

Problem: Item "COc1ccc(OC)c(-c2[nH]c(=O)n3c2-c2ccccc2C3=O)c1" : emission maximum beneath 500 nm, strictly?
Result: Fulfilled

Problem: Item "c1cnc(-c2c3ccccc3c(-c3cncnc3)c3ccccc23)nc1" : emission maximum beneath 500 nm, strictly?
Result: Fulfilled

Problem: Item "CC1=CC(C)=[N+]2C1=Cc1c3ccccc3c(C#Cc3cccs3)n1[B-]2(F)F" : emission maximum beneath 500 nm, strictly?
Result: Not fulfilled

Problem: Item "Cc1cc(C)c(B(c2c(C)cc(C)cc2C)N2c3ccccc3C(c3ccccc3)(c3ccccc3)c3ccccc32)c(C)c1" : emission maximum beneath 500 nm, strictly?
Result: Not fulfilled

Problem: Item "c1ccc(N(c2ccccc2)c2ccc(-c3ccc4c(c3)C3(c5cc(-c6ccc(N(c7ccccc7)c7ccccc7)cc6)ccc5-4)c4ccccc4N(c4ccccc4)c4ccccc43)cc2)cc1" : emission maximum beneath 500 nm, strictly?
Result: Fulfilled

Problem: Item "COc1ccc(-c2csc(/C(C#N)=C/c3ccc(C#N)cc3)n2)cc1" : emission maximum beneath 500 nm, strictly?
Result: Not fulfilled

Where do these numbers come from? They come from the Deep4Chem optical property database.
